Cited source for all entries: ChEMBL document CHEMBL1135324

Let's go through some recorded pIC50 values for Acetylcholinesterase (Homo sapiens, UniProt P22303) together.
On this scale, pIC50 is minus log10 of a concentration expressed in M (mol/L).

Check out these entries, answers already filled in.
| MOLECULE | NUMERIC_READOUT |
| --- | --- |
| COc1cc2c(cc1OC)C(=O)C(CC1CC[N+](C)(Cc3ccccc3)CC1)C2 (stereo not given) | 7.60 |
| C[N@+]1(Cc2ccccc2)CC[C@H](CCC(=O)c2ccc3c(c2)CCO3)CC1 | 7.18 |

For record C[N+]1(Cc2ccccc2)CCC(CCC(=O)c2ccc3c(c2)CCO3)CC1 (stereo not given) the listed pIC50 is 7.77

For record COc1cc2cc(C(=O)CCC3CC[N+](C)(Cc4ccccc4)CC3)n(C)c2cc1OC (stereo not given) the listed pIC50 is 6.92

For record Cc1cc(C(=O)CCC2CC[N+](C)(Cc3ccccc3)CC2)nn1-c1ccccc1 (stereo not given) the listed pIC50 is 7.66

For record COc1cc2cc(C(=O)CCC3CC[N+](C)(Cc4ccccc4)CC3)sc2cc1OC (stereo not given) the listed pIC50 is 8.10

For record C[N+]1(Cc2ccccc2)CCC(CCC(=O)c2ccc3c(c2)CCCCO3)CC1 (stereo not given) the listed pIC50 is 6.86
